Experiment: solubility in water
Type: physicochemical
Readout: solubility

// recorded solubility for CC(Nc1nc(N2CCCC2)nc2ccccc12)c1ccccc1 (stereo not shown) [importazole] : ~100 µM
